- Assay Comment: MDCK permeability assay, wild type MDCK cells with no inhibitor (A→B)
- Type: in vitro ADME, Canine
- Condition: dog, no Pgp inhibitor, apical to basolateral
Property Label: Papp A→B at 90 min, 5 μM

> print(dat)
                                   molecule            property.label    endpoint.result
1  O=C(O)CN1CCC(C(=O)N2CCC(c3ccc4c(n3)NCCC4)CC2)CC1 [Reference Compound]  Papp A→B at 90 min, 5 μM  < 0.23 ×10⁻⁶ cm/s
